tested on: Candida albicans ATCC 10231; experiment: antifungal activity in vitro, serial dilution in RPMI 1640; assay type: cell-based
In this section we review reported Antifungal activity MIC values for a set of molecules.
Could you give me the number in µg/mL? Just the number is fine.

Challenge: Identify the reported Antifungal activity MIC for the following entry. Cc1cc(C)c(N2C(=O)CC(N[C@@H]3[C@H](O)[C@H](O[C@H]4/C=C/C=C/C=C/C=C/C=C/C=C/C=C/[C@H](C)[C@@H](O)[C@@H](C)[C@H](C)OC(=O)C[C@H](O)C[C@H](O)CC[C@@H](O)[C@H](O)C[C@H](O)C[C@]5(O)C[C@H](O)[C@@H](C(=O)O)[C@H](C4)O5)O[C@H](C)[C@H]3O)C2=O)c(C)c1 (stereo partly drawn)
Response given: 4

Challenge: Provide Antifungal activity MIC value for the following molecule: C[C@@H]1[C@H](O)[C@@H](C)/C=C/C=C/C=C/C=C/C=C/C=C/C=C/[C@H](O[C@@H]2O[C@H](C)[C@@H](O)[C@H](NC(=O)[C@@H](N)CSC(C)(C)C)[C@@H]2O)C[C@@H]2O[C@](O)(C[C@@H](O)C[C@@H](O)[C@H](O)CC[C@@H](O)C[C@@H](O)CC(=O)O[C@H]1C)C[C@H](O)[C@H]2C(=O)O [Compound A37, N-L-(S-tert-butyl)cystylamphotericin B]
Response given: 2

Challenge: Complete the entry with Antifungal activity MIC for C[C@@H]1[C@H](O)[C@@H](C)/C=C/C=C/C=C/C=C/C=C/C=C/C=C/[C@H](O[C@@H]2O[C@H](C)[C@@H](O)[C@H](NC3CC(=O)N(c4ccccc4C(C)(C)C)C3=O)[C@@H]2O)C[C@@H]2O[C@](O)(C[C@@H](O)C[C@@H](O)[C@H](O)CC[C@@H](O)C[C@@H](O)CC(=O)O[C@H]1C)C[C@H](O)[C@H]2C(=O)O (stereo partly drawn)
Response given: 4

---

Tested on: HepG2 cells
Test: cytotoxic activity against mammalian cells in tissue culture (MTT)
Format: cell-based, human
Description: All media contained 100 μg/ml of penicillin G and streptomycin. 24-wells microplates containing appropriate medium were inoculated with the cells in amount of 1.2×10^4 cells/well and allowed to stand overnight. […] Next, to dissolve crystals of formazane 1 ml of DMSO was added and absorption of solutions was measured at the wavelength λ=540 nm (A540), using a microplates reader (Victor^3, Perkin-Wallac). […]
Each entry below carries its recorded IC50 (cytotoxic activity).

{"compound": "C[C@@H]1[C@H](O)[C@@H](C)/C=C/C=C/C=C/C=C/C=C/C=C/C=C/[C@H](O[C@@H]2O[C@H](C)[C@@H](O)[C@H](NC(=S)NCCN(C)C)[C@@H]2O)C[C@@H]2O[C@](O)(C[C@@H](O)C[C@@H](O)[C@H](O)CC[C@@H](O)C[C@@H](O)CC(=O)O[C@H]1C)C[C@H](O)[C@H]2C(=O)O [Compound A28]", "IC50 (cytotoxic activity)": ">100 µg/mL"}

Challenge: Return IC50 (cytotoxic activity) (reported value) for this compound: C[C@@H]1[C@H](O)[C@@H](C)/C=C/C=C/C=C/C=C/C=C/C=C/C=C/[C@H](O[C@@H]2O[C@H](C)[C@@H](O)[C@H](NC(=O)[C@H](N)c3ccccc3)[C@@H]2O)C[C@@H]2O[C@](O)(C[C@@H](O)C[C@@H](O)[C@H](O)CC[C@@H](O)C[C@@H](O)CC(=O)O[C@H]1C)C[C@H](O)[C@H]2C(=O)O [Compound A41, N-D-phenylglycylamphotericin B]
Response given: >100 µg/mL

Challenge: Determine from records and report IC50 (cytotoxic activity) for CCCN(CC1(O)OCC(O)C(O)C1O)C1C(O)C(C)OC(OC2C=CC=CC=CC=CC=CC=CC=CC(C)C(O)C(C)C(C)OC(=O)CC(O)CC(O)CCC(O)C(O)CC(O)CC3(O)CC(O)C(C(=O)O)C(C2)O3)C1O (stereo not drawn) [Compound A16, N-fructosyl-N-n-propylamphotericin B]
Response given: 73.3 ± 1.20 µg/mL
